- MEASURED ON: Gastrin/cholecystokinin type B receptor (Cavia porcellus)
- PROTOCOL DETAILS: In vitro inhibition of binding of [3H]pCCK-8 against Cholecystokinin type B receptor of guinea pig cerebral cortex membranes
// values below are reported Ki
PARAMETER: Ki (nM)

> print(dat)
                                   compound  quantitative.readout
1  CSc1cccc(NC(=O)NC2C(=O)N(CCC(C)(C)C)c3ccccc3N(c3ccccc3)C2=O)c1 (stereo not drawn)                  0.49
2  O=C(Nc1ccccc1)NC1C(=O)N(c2ccccc2)c2ccccc2N(C2CC3CCC2C3)C1=O (stereo not drawn)                   1.5
3  CSc1cccc(NC(=O)NC2C(=O)N(CCC(C)(C)C)c3ccccc3N(c3ccccc3F)C2=O)c1 (stereo not drawn)                 0.724
4  O=C(Nc1ccccc1)NC1C(=O)N(CCC23C[C@H]4C[C@@H](C2)C[C@@H](C3)C4)c2ccccc2N(c2ccccc2)C1=O (stereo partly drawn)                    34
5  CN(C)c1cccc(NC(=O)NC2C(=O)N(CC34C[C@H]5C[C@@H](C3)C[C@@H](C4)C5)c3ccccc3N(c3ccccc3)C2=O)c1 (stereo partly drawn)                   1.1
6  O=C(Nc1cccc(C2N=NN=N2)c1)NC1C(=O)N(c2ccccc2)c2ccccc2N(C2[C@H]3C[C@@H]4C[C@@H](C[C@H]2C4)C3)C1=O (stereo partly drawn)                   2.1
7  O=C(Nc1ccccc1)NC1C(=O)N(CCC2CCCC2)c2ccccc2N(c2ccccc2F)C1=O (stereo not drawn)                 0.724
8  CSc1cccc(NC(=O)NC2C(=O)N(CCC(C)C)c3ccccc3N(c3ccccc3F)C2=O)c1 (stereo not drawn)                 0.331

----------
// values below are reported pKi
- MEASURED ON: Gastrin/cholecystokinin type B receptor (Cavia porcellus)
- PROTOCOL DETAILS: In vitro inhibition of binding of [3H]pCCK-8 against Cholecystokinin type B receptor of guinea pig cerebral cortex membranes
pKi: −log10 of the molar value.
PARAMETER: pKi

MOLECULE	QUANTITATIVE READOUT
CN(C)c1ccc(NC(=O)NC2C(=O)N(CCC3CCCC3)c3ccccc3N(c3ccccc3F)C2=O)cc1 (centres undefined)	8.33
O=C(Nc1cccc([N+](=O)[O-])c1)NC1C(=O)N(CC23C[C@H]4C[C@@H](C2)C[C@@H](C3)C4)c2ccccc2N(c2ccccc2)C1=O (some centres undefined)	8.72
O=C(O)CCCOc1ccc(NC(=O)NC2C(=O)N(CC34C[C@H]5C[C@@H](C3)C[C@@H](C4)C5)c3ccccc3N(c3ccccc3)C2=O)cc1 (some centres undefined)	8.42
O=C(Nc1ccccc1)NC1C(=O)N(CC2[C@H]3C[C@@H]4C[C@@H](C[C@H]2C4)C3)c2ccccc2N(c2ccccc2)C1=O (some centres undefined)	8.72

----------
- MEASURED ON: Gastrin/cholecystokinin type B receptor (Cavia porcellus)
- PROTOCOL DETAILS: In vitro inhibition of binding of [3H]pCCK-8 against Cholecystokinin type B receptor of guinea pig cerebral cortex membranes
PARAMETER: Ki

> print(dat)
                                   molecule    result
1  CN(C)c1cccc(NC(=O)NC2C(=O)N(c3ccccc3)c3ccccc3N(C3CC4CCC3C4)C2=O)c1 (centres undefined)      1 nM
2  CC(C)(C)CCN1C(=O)C(NC(=O)Nc2cccc(C#N)c2)C(=O)N(c2ccccc2)c2ccccc21 (centres undefined)  0.646 nM
3  CN(C)c1cccc(NC(=O)NC2C(=O)N(CCC(C)(C)C)c3ccccc3N(c3ccccc3F)C2=O)c1 (centres undefined)  0.603 nM
4  CC(C)C(C)CN1C(=O)C(NC(=O)Nc2ccccc2)C(=O)N(c2ccccc2)c2ccccc21 (centres undefined)    1.1 nM
